test system: Enterobacter cloacae
Positions of bridges follow the written chain, without caps; N, C: chain ends. Non-standard residues stand in square brackets, D forms with d. Residues, ends and D or L forms follow the SMILES beside them. *: point of attachment. Benzoyl(3-CF3) = O=C(c1cccc(C(F)(F)F)c1)*; Benzoyl(4-Cl) = O=C(c1ccc(Cl)cc1)*; X19 = Cc1cc(Cl)cc(C(=O)*)c1; dNle = CCCC[C@@H](N)C(=O)O; Octanoyl = CCCCCCCC(=O)*; X42 = Cc1ccc(C(=O)*)cc1F; Dab = NCC[C@H](N)C(=O)O; Abu = CC[C@H](N)C(=O)O; Dap = NC[C@H](N)C(=O)O
metric: Minimum inhibitory concentration, Ec FADDI-EC001 (µg/mL)
Write the value in µg/mL as a bare number.

Given item CCCCCCCC(=O)N[C@@H](CCN)C(=O)N[C@H](C(=O)N[C@H](CO)C(=O)N[C@H]1CCNC(=O)[C@H]([C@@H](C)O)NC(=O)[C@H](CCN)NC(=O)[C@H](CCN)NC(=O)[C@H](CO)NC(=O)[C@@H](CC(C)C)NC(=O)[C@H](CCN)NC1=O)[C@@H](C)O [Compound 6] (Octanoyl-[Dab]T[dS][Dab][Dab][dL]S[Dab][Dab]T; lactam 4-C) , the value recorded as its Minimum inhibitory concentration, Ec FADDI-EC001 is 0.25

Given item CC[C@@H]1NC(=O)[C@@H](CC(C)C)NC(=O)[C@H](CCN)NC(=O)[C@@H](NC(=O)[C@H](CN)NC(=O)[C@@H](NC(=O)[C@H](CCN)NC(=O)c2cc(C)cc(Cl)c2)[C@@H](C)O)CCNC(=O)[C@H]([C@@H](C)O)NC(=O)[C@H](CCN)NC(=O)[C@H](CCN)NC1=O [Compound 114] (X19-[Dab]T[Dap][Dab][Dab][dL][Abu][Dab][Dab]T; lactam 4-C) , the value recorded as its Minimum inhibitory concentration, Ec FADDI-EC001 is 0.25

Given item CCCC[C@H]1NC(=O)[C@H](CCN)NC(=O)[C@@H](NC(=O)[C@H](CN)NC(=O)[C@@H](NC(=O)[C@H](CCN)NC(=O)c2cccc(C(F)(F)F)c2)[C@@H](C)O)CCNC(=O)[C@H]([C@@H](C)O)NC(=O)[C@H](CCN)NC(=O)[C@H](CCN)NC(=O)[C@H]([C@@H](C)O)NC1=O [Compound 123] ({Benzoyl(3-CF3)}-[Dab]T[Dap][Dab][Dab][dNle]T[Dab][Dab]T; lactam 4-C) , the value recorded as its Minimum inhibitory concentration, Ec FADDI-EC001 is 0.5

Given item CC[C@@H]1NC(=O)[C@@H](CC(C)C)NC(=O)[C@H](CCN)NC(=O)[C@@H](NC(=O)[C@H](CN)NC(=O)[C@@H](NC(=O)[C@H](CCN)NC(=O)c2ccc(C)c(F)c2)[C@@H](C)O)CCNC(=O)[C@H]([C@@H](C)O)NC(=O)[C@H](CCN)NC(=O)[C@H](CCN)NC1=O [Compound 102] (X42-[Dab]T[Dap][Dab][Dab][dL][Abu][Dab][Dab]T; lactam 4-C) , the value recorded as its Minimum inhibitory concentration, Ec FADDI-EC001 is 1

Given item CC[C@@H]1NC(=O)[C@@H](CC(C)C)NC(=O)[C@H](CCN)NC(=O)[C@@H](NC(=O)[C@H](CN)NC(=O)[C@@H](NC(=O)[C@H](CCN)NC(=O)c2ccc(Cl)cc2)[C@@H](C)O)CCNC(=O)[C@H]([C@@H](C)O)NC(=O)[C@H](CCN)NC(=O)[C@H](CCN)NC1=O [Compound 94] ({Benzoyl(4-Cl)}-[Dab]T[Dap][Dab][Dab][dL][Abu][Dab][Dab]T; lactam 4-C) , the value recorded as its Minimum inhibitory concentration, Ec FADDI-EC001 is 0.25
